From: paper PMC12652113

Assay: Absorption and fluorescence photophysical characterization in organic solvents
Type: physicochemical
Settings: DMSO
Method: UV–Vis spectra were recorded on a Perkin-Elmer Lambda 25 spectrophotometer (Perkin-Elmer, Waltham, MA, USA) using Hellma Analytics quartz cuvettes (1 cm path length; Hellma Analytics, Müllheim, Germany). […] The latter was calculated according to the Lambert–Beer law from calibration plots of absorbance at λmax versus known dye concentrations. […] […] The absorption spectra of these dilutions were recorded and used to calculate molar extinction coefficients according to the Beer–Lambert law. […]
Collected molar absorption coefficient (ε) values appear next to each entry.
Give a bare numeral; the unit M⁻¹ cm⁻¹ is implied.

Exercise: Which molar absorption coefficient (ε) value is on record for CC1(C)C(=CC2=C(NCc3ccc4ccc5cccc6ccc3c4c56)C(=CC3=[N+](CCCc4ccccc4)c4ccccc4C3(C)C)C2=O)N(CCCc2ccccc2)c2ccccc21.[I-] [Dye 14] ?
Solution: 197000

Exercise: Okay, and CNC1=C(C=C2N(CCCc3ccccc3)c3ccccc3C2(C)C)C(=O)C1=CC1=[N+](CCCc2ccccc2)c2ccccc2C1(C)C.[I-] [Dye 11] ?
Solution: 212000

Exercise: Okay, and CC1(C)C(=CC2=C([O-])C(=CC3=[N+](CCCc4ccccc4)c4ccccc4C3(C)C)C2=O)N(CCCc2ccccc2)c2ccccc21 [Dye 5] ?
Solution: 293000

Exercise: Okay, and CC1(C)C(=CC2=C(N)C(=CC3=[N+](CCCc4ccccc4)c4ccccc4C3(C)C)C2=O)N(CCCc2ccccc2)c2ccccc21.[I-] [Dye 9] ?
Solution: 232000

* * *

Collected Stokes shift (ΔS) values appear next to each entry.
Experiment: Absorption and fluorescence photophysical characterization in organic solvents
Format: physicochemical
Settings: DMSO
Give a bare numeral; the unit nm is implied.

Exercise: Which Stokes shift (ΔS) value is on record for CC1(C)C(=CC2=C([O-])C(=CC3=[N+](CCCc4ccccc4)c4ccccc4C3(C)C)C2=O)N(CCCc2ccccc2)c2ccccc21 ?
Solution: 13

Exercise: Okay, and CC1(C)C(=CC2=C(N)C(=CC3=[N+](CCCc4ccccc4)c4ccccc4C3(C)C)C2=O)N(CCCc2ccccc2)c2ccccc21.[I-] ?
Solution: 12

Exercise: Okay, and CC1(C)C(=CC2=C(NCc3ccc4ccc5cccc6ccc3c4c56)C(=CC3=[N+](CCCc4ccccc4)c4ccccc4C3(C)C)C2=O)N(CCCc2ccccc2)c2ccccc21.[I-] ?
Solution: 15

Exercise: Okay, and CNC1=C(C=C2N(CCCc3ccccc3)c3ccccc3C2(C)C)C(=O)C1=CC1=[N+](CCCc2ccccc2)c2ccccc2C1(C)C.[I-] ?
Solution: 12
